targetSystem: UGT2B7 (Homo sapiens)
Sequence (P16662 24-529): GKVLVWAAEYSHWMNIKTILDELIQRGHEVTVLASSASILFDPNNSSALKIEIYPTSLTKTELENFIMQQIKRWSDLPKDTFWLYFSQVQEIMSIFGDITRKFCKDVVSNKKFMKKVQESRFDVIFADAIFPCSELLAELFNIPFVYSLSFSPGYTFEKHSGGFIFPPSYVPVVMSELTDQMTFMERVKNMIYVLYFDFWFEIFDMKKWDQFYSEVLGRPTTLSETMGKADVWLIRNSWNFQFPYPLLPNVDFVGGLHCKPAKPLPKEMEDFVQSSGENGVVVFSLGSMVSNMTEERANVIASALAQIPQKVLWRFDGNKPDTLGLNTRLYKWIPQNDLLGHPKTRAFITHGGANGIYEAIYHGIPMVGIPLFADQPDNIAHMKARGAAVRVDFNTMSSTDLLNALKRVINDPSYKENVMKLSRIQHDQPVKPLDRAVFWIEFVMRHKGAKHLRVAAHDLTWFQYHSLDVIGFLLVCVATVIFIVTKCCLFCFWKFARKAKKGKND
procedureSummary: Inhibition screening of recombinant UGTs by NAF enantiomers, UGT2B7 (4-MU)
Type: in vitro ADME
Design: purchased BD Gentest
measurementParameters: recombinant UGT2B7, probe 4-MU, 100 μM NAF enantiomer, read-out: Inhibition of 4-MU-G formation

compound: COc1ccccc1N1CCN(C[C@H](O)COc2cccc3ccccc23)CC1 [S(-)-NAF]
targetSystem: UGT2B7 (Homo sapiens)
inhibition at 100 μM: > 75%

compound: COc1ccccc1N1CCN(C[C@@H](O)COc2cccc3ccccc23)CC1 [R(+)-NAF]
targetSystem: UGT2B7 (Homo sapiens)
inhibition at 100 μM: > 75%

Origin of measurements: paper PMC5769128
